These entries and their values trace back to the supplement of paper PMC10567573.

B1: AUP1 (parent)
chain: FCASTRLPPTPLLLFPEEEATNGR

# Variants of: B1
# assayMethodText: protein stability index of a GFP-peptide fusion (GPS, HEK-293T) (PSI 1-6); higher = more stable;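 note: lentivirally expressed fusions sorted by FACS into six bins by GFP to DsRed ratio, PSI derived from sequencing read proportions per bin multiplied by bin number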
# conditionsUsed: c terminus: a fixed tail appended
measurementName: protein stability index
Give only the figure.

Here is how some variants turned out for protein stability index.
>  <seqString>
FCAHTRLPPTPLLLFPEEEATNGR

>  <protein stability index>
3.05

$$$$
>  <seqString>
FCASTRLPPTPLLLFPEEESTNGR

>  <protein stability index>
3.21

$$$$
>  <seqString>
FCASTRLPPTPLLLFPEEEAYNGR

>  <protein stability index>
2.65

$$$$
>  <seqString>
FCPSTRLPPTPLLLFPEEEATNGR

>  <protein stability index>
2.25

$$$$

Bench note: what protein stability index did FCASTRLPPTPVLLFPEEEATNGR show?
3.31

Here is the next variant: FCASTRLPPTPLLLFPEEEAWNGR
2.15

Here is the next variant: FCASTRLQPTPLLLFPEEEATNGR
3.19

Here is the next variant: FCASTRLPPTPLLLFPEEEHTNGR
2.81

Here is the next variant: FCASTRLPPTPLALFPEEEATNGR
3.43
